Reference source: the kinase profiling compilation of Christmann-Franck et al. (2016)

residual activity values, listed per item
measuredOn: MAPK1 (human) (UniProt P28482)
Sequence (P28482 whole entry, looked up): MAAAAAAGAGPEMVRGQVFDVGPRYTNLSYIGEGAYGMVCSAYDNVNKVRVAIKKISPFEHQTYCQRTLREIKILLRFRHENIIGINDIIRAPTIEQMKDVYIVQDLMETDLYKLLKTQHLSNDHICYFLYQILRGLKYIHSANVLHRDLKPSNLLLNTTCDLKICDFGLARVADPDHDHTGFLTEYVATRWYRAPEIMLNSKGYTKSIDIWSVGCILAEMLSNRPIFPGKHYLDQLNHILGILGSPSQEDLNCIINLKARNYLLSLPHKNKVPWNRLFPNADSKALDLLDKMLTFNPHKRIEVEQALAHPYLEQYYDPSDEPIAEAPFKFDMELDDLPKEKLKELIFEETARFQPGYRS
assayDetails: radiometric filter-binding kinase assay
particulars: compound 10.0 µM

compound: Cc1ccc2c(c1)C(=O)[C@@]1(O)CCN(c3ccccc3)C1=N2
residual activity (%): 91

compound: O=S(=O)(c1ccc(F)c2nonc12)N1CCN(c2ncc(C(F)(F)F)cc2Cl)CC1
residual activity (%): 90

compound: CCCCCc1ccc(/C=C/[C@H](O)[C@@H](CO)NC)cc1
residual activity (%): 100

compound: FC(F)(F)c1ccc(-c2ccc(Oc3cncc4sc(-c5nn[nH]n5)cc34)cc2)cc1
residual activity (%): 95

compound: O=C(NOCC(O)CO)c1ccc(F)c(F)c1Nc1ccc(I)cc1Cl (stereo not given)
residual activity (%): 79

----------
measuredOn: MAPK10 (human)
assayDetails: radiometric filter-binding kinase assay
particulars: compound 0.1 µM

molecule: O=C(NCCCNc1nc(Nc2cccc(CN3CCOCC3)c2)ncc1C1CC1)C1CCC1
measuredOn: MAPK10 (human)
residual activity, %: 110
--
molecule: Cc1ccc(Sc2cnc(Nc3cccc(Br)n3)s2)cc1C(=O)N1CCN(C(=O)CN)CC1
measuredOn: MAPK10 (human)
residual activity, %: 94
--
molecule: O=C(Nc1nc2cc(C(F)(F)F)cc(NC3CC3)n2n1)c1cccnc1
measuredOn: MAPK10 (human)
residual activity, %: 88
--
molecule: COc1ccc2c(c1)c1c3c(c4c5ccccc5n(C)c4c1n2CC(O)CN(C)C)C(=O)NC3=O (stereo not given)
measuredOn: MAPK10 (human)
residual activity, %: 90
--
molecule: COc1cc(O)c2c(c1)[C@H]1OC1C[C@H](O)[C@H](O)C(=O)/C=C\C[C@H](C)OC2=O (stereo not given in full)
measuredOn: MAPK10 (human)
residual activity, %: 101
--
molecule: CC1=C(CO)C(=O)O[C@@H]([C@@H](C)[C@H]2CC[C@H]3[C@@H]4C[C@H]5O[C@]56[C@@H](O)C=CC(=O)[C@]6(C)C4CC[C@]23C)C1 (stereo not given in full)
measuredOn: MAPK10 (human)
residual activity, %: 122
--
molecule: NC(=O)c1cc(-c2ccnc(NC3CCCCC3)c2)nc(N2CCNCC2)c1
measuredOn: MAPK10 (human)
residual activity, %: 88
--
molecule: CCn1c(-c2nonc2N)nc2cncc(CNC3CCNCC3)c21
measuredOn: MAPK10 (human)
residual activity, %: 97
--
molecule: CN1CCN(CCOc2cc(OC3CCOCC3)c3c(Nc4c(Cl)ccc5c4OCO5)ncnc3c2)CC1
measuredOn: MAPK10 (human)
residual activity, %: 116
--
molecule: Cc1ccc(-c2ccc3c(ccc4sc5c(c43)NC[C@@H](C)NC5=O)n2)cn1
measuredOn: MAPK10 (human)
residual activity, %: 120

----------
Recorded residual activity, one value per entry.
measuredOn: UniProtKB P17612
assayDetails: radiometric filter-binding kinase assay
particulars: compound 10.0 µM

compound: O=C1NC(=S)N[C@@H]1Cc1c[nH]c2ccccc12
residual activity: 95%

compound: O=C1Nc2nc(-c3c(O)cccc3OCC3CC3)cc(C3CCCNC3)c2CO1 (stereo not drawn)
residual activity: 65%

compound: NC(=O)c1cc(-c2ccnc(NC3CCCCC3)c2)nc(N2CCNCC2)c1
residual activity: 93%

compound: Oc1ccc(/C=C/c2cc(O)cc(O)c2)cc1
residual activity: 101%

compound: CCCC(CCC)C(=O)O
residual activity: 91%

compound: CCc1cncnc1N1CCN(Cc2nc3cc(C(F)(F)F)ccc3[nH]2)CC1
residual activity: 34%

compound: CCOC(=O)c1ccc(N2NC(=O)/C(=C/c3ccc([N+](=O)[O-])o3)C2=O)cc1
residual activity: 95%

compound: NC1(c2ccc(-c3nc4ccn5c(=O)[nH]nc5c4cc3-c3ccccc3)cc2)CCC1
residual activity: 90%

----------
measuredOn: DYRK3 (human)
assayDetails: radiometric filter-binding kinase assay
particulars: compound 1.0 µM

compound: O=C(NOCC(O)CO)c1ccc(F)c(F)c1Nc1ccc(I)cc1Cl (stereo not given)
residual activity / %: 107

compound: Nc1cccc2c1CN(C1CCC(=O)NC1=O)C2=O (stereo not given)
residual activity / %: 104

compound: COc1ccc(N(C(=O)Nc2c(C)cccc2C)c2cc(Nc3ccc(N4CCN(C)CC4)cc3)ncn2)c(OC)c1
residual activity / %: 97

compound: CCn1c(-c2nonc2N)nc2cncc(CNC3CCNCC3)c21
residual activity / %: 93

compound: CC1=C(CO)C(=O)O[C@@H]([C@@H](C)[C@H]2CC[C@H]3[C@@H]4C[C@H]5O[C@]56[C@@H](O)C=CC(=O)[C@]6(C)C4CC[C@]23C)C1 (stereo not given in full)
residual activity / %: 101

----------
measuredOn: DAPK1 (human)
assayDetails: radiometric filter-binding kinase assay
particulars: compound 0.1 µM

compound: COc1cc(O)c2c(c1)[C@H]1OC1C[C@H](O)[C@H](O)C(=O)/C=C\C[C@H](C)OC2=O (stereo not given in full)
residual activity [%]: 108

compound: CN(C)C/C=C/C(=O)Nc1cccc(C(=O)Nc2ccc(Nc3nccc(-c4cccnc4)n3)cc2)c1
residual activity [%]: 90

compound: CCn1c(-c2nonc2N)nc2cncc(CNC3CCNCC3)c21
residual activity [%]: 111

compound: O=C(O)c1ccc(-c2c[nH]c3ncc(-c4ccccc4)cc23)cc1C1CCCC1
residual activity [%]: 87

compound: COc1cc(O)c2c(c1)/C=C/C[C@H](O)[C@H](O)C(=O)/C=C\C[C@H](C)OC2=O
residual activity [%]: 108

compound: CC1=C(CO)C(=O)O[C@@H]([C@@H](C)[C@H]2CC[C@H]3[C@@H]4C[C@H]5O[C@]56[C@@H](O)C=CC(=O)[C@]6(C)C4CC[C@]23C)C1 (stereo not given in full)
residual activity [%]: 108

compound: O=C(N[C@@H](COc1ccc2[nH]c(=O)[nH]c2c1)c1ccccc1)c1cccn(Cc2ccc(F)c(F)c2)c1=O
residual activity [%]: 106

compound: COc1ccc(N(C(=O)Nc2c(C)cccc2C)c2cc(Nc3ccc(N4CCN(C)CC4)cc3)ncn2)c(OC)c1
residual activity [%]: 88

compound: Cc1cccc(-c2nn(C(=S)Nc3ccccc3)cc2-c2ccnc3ccccc23)n1
residual activity [%]: 94

compound: CN1CCN(CCOc2cc(OC3CCOCC3)c3c(Nc4c(Cl)ccc5c4OCO5)ncnc3c2)CC1
residual activity [%]: 82

----------
measuredOn: RPS6KA5 KD1 KD2 (human)
assayDetails: radiometric filter-binding kinase assay
particulars: compound 1.0 µM
Values of residual activity greater than or equal to 90% map to fulfilled; values below map to not fulfilled.

querySmiles: Cc1ccc(-c2ccc3c(ccc4sc5c(c43)NC[C@@H](C)NC5=O)n2)cn1
class: fulfilled
//
querySmiles: CNc1nc(-c2ccc3c(N)n[nH]c3c2)cc(N2C[C@@H](C(=O)NC3CCCCC3)CC[C@H]2C)n1
class: fulfilled
//
querySmiles: Oc1ccc2ccccc2c1SSc1c(O)ccc2ccccc12
class: not fulfilled
//
querySmiles: Cc1cc(NC(=O)c2cccc(NC(=O)/C=C/CN(C)C)c2)ccc1Nc1nccc(-c2cccnc2)n1
class: not fulfilled
//
querySmiles: N#Cc1c(C2CCNCC2)cc(-c2c(O)cccc2OCC2CC2)nc1N
class: fulfilled

----------
measuredOn: UniProt Q9HC98
Sequence (Q9HC98 whole entry, looked up): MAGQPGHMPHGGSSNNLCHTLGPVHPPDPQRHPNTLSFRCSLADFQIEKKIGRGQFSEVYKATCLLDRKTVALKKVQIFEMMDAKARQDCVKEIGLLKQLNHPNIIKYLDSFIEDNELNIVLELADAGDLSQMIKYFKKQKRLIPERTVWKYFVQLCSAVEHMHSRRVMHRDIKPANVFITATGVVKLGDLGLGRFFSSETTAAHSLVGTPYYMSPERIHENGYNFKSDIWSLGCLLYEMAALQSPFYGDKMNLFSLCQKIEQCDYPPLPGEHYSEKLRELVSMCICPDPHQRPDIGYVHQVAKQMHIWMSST
assayDetails: radiometric filter-binding kinase assay
particulars: compound 1.0 µM

querySmiles: COc1ccc(N(C(=O)Nc2c(C)cccc2C)c2cc(Nc3ccc(N4CCN(C)CC4)cc3)ncn2)c(OC)c1
measuredOn: UniProt Q9HC98
residual activity / %: 91
//
querySmiles: C[C@H]1CCCC(=O)CCC/C=C/c2cc(O)cc(O)c2C(=O)O1
measuredOn: UniProt Q9HC98
residual activity / %: 91
//
querySmiles: CN1C(=O)[C@@H](Cc2c[nH]c3ccccc23)NC1=S
measuredOn: UniProt Q9HC98
residual activity / %: 89

----------
measuredOn: IRAK4 (human) (UniProt Q9NWZ3)
Sequence (Q9NWZ3 whole entry, looked up): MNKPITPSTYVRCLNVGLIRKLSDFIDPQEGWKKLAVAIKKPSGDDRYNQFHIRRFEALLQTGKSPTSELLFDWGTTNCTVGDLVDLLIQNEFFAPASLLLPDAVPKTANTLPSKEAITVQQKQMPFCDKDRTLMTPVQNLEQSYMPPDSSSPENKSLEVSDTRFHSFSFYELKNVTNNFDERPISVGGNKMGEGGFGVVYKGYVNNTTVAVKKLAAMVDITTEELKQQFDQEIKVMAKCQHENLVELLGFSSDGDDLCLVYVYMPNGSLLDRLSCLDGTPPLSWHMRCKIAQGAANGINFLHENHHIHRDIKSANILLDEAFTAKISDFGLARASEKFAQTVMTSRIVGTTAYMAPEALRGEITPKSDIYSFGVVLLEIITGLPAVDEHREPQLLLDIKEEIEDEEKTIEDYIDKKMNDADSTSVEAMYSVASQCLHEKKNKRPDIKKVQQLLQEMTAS
assayDetails: radiometric filter-binding kinase assay
particulars: compound 10.0 µM
assayReadout: residual activity (%)

molecule: N#Cc1c(O)c2c(-c3ccc(-c4ccccc4O)cc3)csc2[nH]c1=O
obsValue: 82

molecule: CC(C)C[C@H](NC(=O)CNC(=O)c1cc(Cl)ccc1Cl)B1OC(=O)CC(CC(=O)O)(C(=O)O)O1 (stereo partly drawn)
obsValue: 79

molecule: NCC(=O)Nc1ccc(-n2nc(C(F)(F)F)cc2-c2ccc3c(ccc4ccccc43)c2)cc1
obsValue: 79

----------
measuredOn: BRSK2 (human) (UniProt Q8IWQ3)
Sequence (Q8IWQ3 whole entry, looked up): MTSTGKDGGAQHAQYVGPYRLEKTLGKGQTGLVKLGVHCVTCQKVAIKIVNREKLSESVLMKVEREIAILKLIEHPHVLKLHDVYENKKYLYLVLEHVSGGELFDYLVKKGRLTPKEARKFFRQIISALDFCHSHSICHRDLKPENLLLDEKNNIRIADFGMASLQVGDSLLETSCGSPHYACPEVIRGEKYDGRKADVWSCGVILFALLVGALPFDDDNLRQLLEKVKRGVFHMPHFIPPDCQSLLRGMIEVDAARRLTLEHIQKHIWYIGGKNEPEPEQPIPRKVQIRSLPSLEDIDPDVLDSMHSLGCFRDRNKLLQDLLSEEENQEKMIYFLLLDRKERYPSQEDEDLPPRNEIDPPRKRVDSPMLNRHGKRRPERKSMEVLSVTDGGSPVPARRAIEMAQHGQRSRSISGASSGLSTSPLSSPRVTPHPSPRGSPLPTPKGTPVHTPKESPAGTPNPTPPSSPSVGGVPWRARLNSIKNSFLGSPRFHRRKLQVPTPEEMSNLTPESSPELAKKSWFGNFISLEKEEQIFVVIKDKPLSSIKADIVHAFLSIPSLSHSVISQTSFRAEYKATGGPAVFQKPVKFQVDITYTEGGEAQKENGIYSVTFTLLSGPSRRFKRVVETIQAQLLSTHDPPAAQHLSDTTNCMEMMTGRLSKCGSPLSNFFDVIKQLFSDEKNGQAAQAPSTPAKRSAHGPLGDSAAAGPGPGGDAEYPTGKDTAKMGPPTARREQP
assayDetails: radiometric filter-binding kinase assay
particulars: compound 10.0 µM

querySmiles: Cc1cccc(Nc2nn(C)c3ncnc(N)c23)c1
measuredOn: BRSK2 (human) (UniProt Q8IWQ3)
residual activity, %: 100

querySmiles: Cc1cc(SCc2sc(-c3ccc(C(F)(F)F)cc3)nc2C)ccc1OCC(=O)O
measuredOn: BRSK2 (human) (UniProt Q8IWQ3)
residual activity, %: 78

querySmiles: NCC(=O)Nc1ccc(-n2nc(C(F)(F)F)cc2-c2ccc3c(ccc4ccccc43)c2)cc1
measuredOn: BRSK2 (human) (UniProt Q8IWQ3)
residual activity, %: 64
